FYI, the data here is from patent US9290511B2.

Consider the following compounds and their measured IC50 readings.
target: Kir3.1/3.4 (Rattus norvegicus, UniProt P48548+P63251)
Construct: expressed in transfected cells
Sequence (P63251 whole entry): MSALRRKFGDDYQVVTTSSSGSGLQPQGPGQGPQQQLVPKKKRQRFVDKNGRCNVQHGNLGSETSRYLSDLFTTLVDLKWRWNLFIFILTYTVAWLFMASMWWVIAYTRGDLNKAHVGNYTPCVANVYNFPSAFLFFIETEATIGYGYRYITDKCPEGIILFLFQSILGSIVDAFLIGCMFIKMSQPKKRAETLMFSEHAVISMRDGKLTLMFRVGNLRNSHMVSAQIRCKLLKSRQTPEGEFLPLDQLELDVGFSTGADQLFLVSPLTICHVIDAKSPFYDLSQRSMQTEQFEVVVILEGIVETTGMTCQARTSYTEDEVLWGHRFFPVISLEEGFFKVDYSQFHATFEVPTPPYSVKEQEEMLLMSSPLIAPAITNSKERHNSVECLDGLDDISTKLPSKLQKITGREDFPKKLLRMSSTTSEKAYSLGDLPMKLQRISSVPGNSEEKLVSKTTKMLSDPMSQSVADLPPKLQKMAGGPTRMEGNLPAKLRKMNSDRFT
Sequence (P48548 whole entry): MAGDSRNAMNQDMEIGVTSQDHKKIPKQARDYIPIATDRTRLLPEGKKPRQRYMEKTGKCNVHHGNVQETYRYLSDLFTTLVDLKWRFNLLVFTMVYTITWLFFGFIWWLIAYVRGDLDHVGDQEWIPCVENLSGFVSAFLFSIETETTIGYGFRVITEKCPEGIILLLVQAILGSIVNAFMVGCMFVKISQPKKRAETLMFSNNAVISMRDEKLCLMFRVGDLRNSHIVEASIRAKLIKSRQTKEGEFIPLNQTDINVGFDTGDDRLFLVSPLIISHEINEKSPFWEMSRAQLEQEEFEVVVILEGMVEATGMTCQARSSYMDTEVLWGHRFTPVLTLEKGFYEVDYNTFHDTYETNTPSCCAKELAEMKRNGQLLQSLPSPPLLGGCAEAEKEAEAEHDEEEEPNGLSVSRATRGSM
testDetails: Kir3.1/3.4 Q-patch Method (automated patch clamp, Sophion Q-patch)
Format: cell-based
experimentalParameters: HEK293 cells stably-expressing Kir3.1/3.4; current at -120 mV; QPatch-16 or QPatch-48

[
  {
    "compound": "COc1ccccc1-c1csc2nc(N3CCC(O)C3)nc(N3C4CCC3COC4)c12 (centres unmarked)",
    "IC50": "< 500 nM"
  },
  {
    "compound": "NC(=O)C1CCN(c2nc(N3C4CCC3CC(O)C4)nc3scc(-c4ccccc4Cl)c23)C1 (centres unmarked)",
    "IC50": "500 to 3000 nM"
  },
  {
    "compound": "COC1CC2CCC(C1)N2c1nc(N2CCOC(C(N)=O)C2)nc2scc(-c3ccccc3Cl)c12 (centres unmarked)",
    "IC50": "< 500 nM"
  },
  {
    "compound": "NC(=O)C1CCCN(c2nc(N3C4CCC3COC4)c3c(-c4ccccc4Cl)csc3n2)C1 (centres unmarked)",
    "IC50": "500 to 3000 nM"
  },
  {
    "compound": "COc1ccccc1-c1csc2nc(N3CCC(C(N)=O)C3)nc(N3C4CCC3COC4)c12 (centres unmarked)",
    "IC50": "500 to 3000 nM"
  },
  {
    "compound": "COC1CC2CCC(C1)N2c1nc(N2CCCC(C(N)=O)C2)c2c(-c3ccccc3Cl)csc2n1 (centres unmarked)",
    "IC50": "< 500 nM"
  },
  {
    "compound": "COc1ccccc1-c1csc2nc(N3C4CCC3CC(O)C4)nc(N3C4CCC3COC4)c12 (centres unmarked)",
    "IC50": "500 to 3000 nM"
  },
  {
    "compound": "COC1CC2CCC(C1)N2c1nc(N2CCNC(C(N)=O)C2)nc2scc(-c3ccccc3Cl)c12 (centres unmarked)",
    "IC50": "< 500 nM"
  }
]
